# assayed system: M. fascicularis KLB and human FGFR1c co-expressed on HEK293/MfKLB/hFGFR1c/SRE-Luc cells (M. fascicularis; human, UniProt A0A2K5WB58 1-1044)
# Sequence (chain, as listed by the source, chain 1 of 2): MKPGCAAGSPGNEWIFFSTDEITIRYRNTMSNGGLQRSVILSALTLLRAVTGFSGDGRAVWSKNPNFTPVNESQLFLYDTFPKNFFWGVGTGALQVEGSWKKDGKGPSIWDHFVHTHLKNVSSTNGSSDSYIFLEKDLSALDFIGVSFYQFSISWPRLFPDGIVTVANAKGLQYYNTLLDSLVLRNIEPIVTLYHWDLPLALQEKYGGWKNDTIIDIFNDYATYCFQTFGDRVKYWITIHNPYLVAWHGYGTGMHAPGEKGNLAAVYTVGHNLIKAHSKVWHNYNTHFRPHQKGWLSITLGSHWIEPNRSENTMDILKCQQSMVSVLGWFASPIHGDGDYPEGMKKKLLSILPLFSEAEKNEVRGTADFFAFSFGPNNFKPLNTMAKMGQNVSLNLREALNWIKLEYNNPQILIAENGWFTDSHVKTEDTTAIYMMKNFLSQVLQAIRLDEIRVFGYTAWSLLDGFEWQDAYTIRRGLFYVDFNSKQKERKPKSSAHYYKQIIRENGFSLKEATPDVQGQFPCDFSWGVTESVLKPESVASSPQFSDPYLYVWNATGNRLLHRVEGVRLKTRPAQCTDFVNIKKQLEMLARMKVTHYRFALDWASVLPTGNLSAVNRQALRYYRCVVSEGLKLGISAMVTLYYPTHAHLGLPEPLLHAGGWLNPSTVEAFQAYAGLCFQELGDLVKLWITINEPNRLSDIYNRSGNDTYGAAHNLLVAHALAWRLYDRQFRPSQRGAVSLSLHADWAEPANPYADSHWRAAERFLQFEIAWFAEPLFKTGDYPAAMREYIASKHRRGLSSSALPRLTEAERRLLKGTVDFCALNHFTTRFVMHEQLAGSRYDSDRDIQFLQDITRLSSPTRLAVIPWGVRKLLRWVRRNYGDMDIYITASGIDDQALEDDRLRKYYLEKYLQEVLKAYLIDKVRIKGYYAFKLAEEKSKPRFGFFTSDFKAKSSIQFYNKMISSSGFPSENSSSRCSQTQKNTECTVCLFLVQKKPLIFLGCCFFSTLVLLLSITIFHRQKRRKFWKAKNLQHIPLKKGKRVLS
# Sequence (chain, as listed by the source, chain 2 of 2): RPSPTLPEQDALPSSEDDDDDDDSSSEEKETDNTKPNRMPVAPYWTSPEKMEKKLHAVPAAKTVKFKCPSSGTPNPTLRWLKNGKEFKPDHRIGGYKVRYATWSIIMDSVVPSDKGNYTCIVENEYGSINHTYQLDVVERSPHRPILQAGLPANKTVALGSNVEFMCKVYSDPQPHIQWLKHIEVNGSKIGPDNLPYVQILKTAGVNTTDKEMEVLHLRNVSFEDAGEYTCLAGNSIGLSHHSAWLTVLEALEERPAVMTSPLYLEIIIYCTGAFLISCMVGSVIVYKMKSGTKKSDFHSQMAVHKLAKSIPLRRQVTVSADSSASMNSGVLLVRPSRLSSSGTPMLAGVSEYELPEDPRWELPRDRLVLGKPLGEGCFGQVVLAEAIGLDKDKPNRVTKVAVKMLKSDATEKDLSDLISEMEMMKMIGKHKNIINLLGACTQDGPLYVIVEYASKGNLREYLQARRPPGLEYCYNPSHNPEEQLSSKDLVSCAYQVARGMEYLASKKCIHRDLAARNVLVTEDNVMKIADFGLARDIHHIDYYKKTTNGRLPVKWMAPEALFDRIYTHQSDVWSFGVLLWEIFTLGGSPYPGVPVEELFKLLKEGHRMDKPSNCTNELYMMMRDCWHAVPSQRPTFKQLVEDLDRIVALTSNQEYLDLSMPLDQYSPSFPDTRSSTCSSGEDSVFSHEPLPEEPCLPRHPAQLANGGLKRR
# assay name: cell-based or functional assay
IC50, inhibition of 10 nM mfFGF21 values by entry
Provide only the numeric value, understood in nM.

{"binder": "H2aM8092N (antibody, V domains shown, mouse IgG2 Fc (H2aM prefix); also called H2M8092N) VH: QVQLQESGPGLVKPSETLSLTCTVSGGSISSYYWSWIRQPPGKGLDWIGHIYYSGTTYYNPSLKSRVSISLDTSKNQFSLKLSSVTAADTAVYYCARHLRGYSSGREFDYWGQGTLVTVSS VL: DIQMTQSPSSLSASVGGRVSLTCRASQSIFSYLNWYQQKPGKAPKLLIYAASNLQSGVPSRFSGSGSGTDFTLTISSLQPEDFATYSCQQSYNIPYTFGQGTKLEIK", "unit text": "nM", "IC50, inhibition of 10 nM mfFGF21": 0.22}
{"binder": "H2bM8833N (antibody, V domains shown, mouse IgG2 Fc (H2bM prefix)) VH: QVQLVESGGGVVQPGRSLRLSCAASGFTFSRYGIHWVRQAPGKGLEWVAVIWYDGSNKYYADSLKGRFTISRDNSKNTLYLQMNSLRAEDTAVYYCARDQGNYIDYWGQGTLVTVSS VL: AIQMTQSPSSLSASVGDRVTITCRTSQGIRNDLGWYQQKPGKVPKLLIYAASSLQSGVPSRFSGSGSGTDFTLTISSLQPEDFATYYCLQDYNYPFTFGPGTKVDIK", "unit text": "nM", "IC50, inhibition of 10 nM mfFGF21": 0.099}
{"binder": "H4H8880P (antibody, V domains shown, human IgG4 Fc (H4H prefix)) VH: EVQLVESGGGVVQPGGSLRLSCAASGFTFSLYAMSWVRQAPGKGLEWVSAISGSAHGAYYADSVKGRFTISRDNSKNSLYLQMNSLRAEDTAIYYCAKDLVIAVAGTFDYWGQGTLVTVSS VL: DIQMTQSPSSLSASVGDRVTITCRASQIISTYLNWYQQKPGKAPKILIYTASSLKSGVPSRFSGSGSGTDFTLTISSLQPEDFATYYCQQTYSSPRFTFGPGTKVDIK", "unit text": "nM", "IC50, inhibition of 10 nM mfFGF21": 0.12}

Q. Please report the recorded IC50, inhibition of 10 nM mfFGF21 for H2aM8832N (antibody, V domains shown, mouse IgG2 Fc (H2aM prefix)) VH: QVQLVESGGGVVQPGRSLRLSCAASGFTFSRYGMHWVRQAPGKGLEWVAVIWYDGTNKYYEDSLKGRFTISRDNSKNTLYLQMNSLRAEDSAVYYCARDQGKYIDYWGQGTLVTVSS VL: AIQMTQSPSSLSASVGDRVTITCRTSQDIRNDLGWYQQKPGKVPNLLIYAASTLQSGVPSRFSGSGSGTDFTLTISSLQPEDFATYYCLQDYNYPFTFGPGTKVDIK .
A. 0.11

Q. Ok, now H4H8871P (antibody, V domains shown, human IgG4 Fc (H4H prefix)) VH: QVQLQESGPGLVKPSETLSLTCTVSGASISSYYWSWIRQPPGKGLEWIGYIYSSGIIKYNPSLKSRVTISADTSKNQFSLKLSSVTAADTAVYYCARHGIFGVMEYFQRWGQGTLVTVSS VL: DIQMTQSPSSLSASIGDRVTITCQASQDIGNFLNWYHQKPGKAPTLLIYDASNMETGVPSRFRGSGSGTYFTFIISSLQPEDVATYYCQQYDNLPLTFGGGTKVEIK
A. 0.39

All values here come from patent US20170174769A1.
